Reported EC50 values for a set of molecules
System: Cowpox virus
test_method_notes: Antiviral activity against Cowpox virus
Format: functional, organism-based

Exam item: What reported EC50 corresponds to Nc1nc(=O)c([C@@H]2C=C(CO)[C@@H](O)[C@H]2O)c[nH]1 on Cowpox virus?
Marked response: > 100 µM

Exam item: Consider next the molecule Nc1nc(O)c2[nH]cc([C@@H]3C=C(CO)[C@@H](O)[C@H]3O)c2n1 in the same way.
Marked response: > 100 µM

Exam item: What do you get for Nc1ncnc2c([C@@H]3C=C(CO)[C@@H](O)[C@H]3O)c[nH]c12 ?
Marked response: > 100 µM

Exam item: Can you check Nc1ncnc2c1ncn2[C@@H]1C=C(CO)[C@@H](O)[C@H]1O [NEOPLANOCIN A] next?
Marked response: 8.4 µM

Exam item: Let us now turn to O=c1[nH]cc([C@@H]2C=C(CO)[C@@H](O)[C@H]2O)c(=O)[nH]1
Marked response: > 100 µM

* * *

test_method_notes: Cytotoxicity against PBM cells
Format: cell-based
condition_label: Homo sapiens, PBMC
measured_quantity: IC50

Illustrative cases are given below, each with its answer.
> print(dat)
                           structure.smiles  measured.quantity    result
1  O=c1[nH]cc([C@@H]2C=C(CO)[C@@H](O)[C@H]2O)c(=O)[nH]1               IC50  > 100 µM
2  Nc1nc(O)c2[nH]cc([C@@H]3C=C(CO)[C@@H](O)[C@H]3O)c2n1               IC50  > 100 µM
3  Nc1ncnc2c([C@@H]3C=C(CO)[C@@H](O)[C@H]3O)c[nH]c12               IC50   15.6 µM
4  Cc1cn([C@H]2C[C@H](N=[N+]=[N-])[C@@H](CO)O2)c(=O)[nH]c1=O               IC50  > 100 µM

Exam item: // returns reported IC50 for input Nc1nc(=O)c([C@@H]2C=C(CO)[C@@H](O)[C@H]2O)c[nH]1
Marked response: > 100 µM

* * *

System: CCRF-CEM
test_method_notes: Cytotoxicity against CEM cells
Format: cell-based
condition_label: Homo sapiens
pIC50: −log10 of the molar value.
measured_quantity: pIC50

> print(dat)
                           structure.smiles  measured.quantity  result
1  Nc1nc(O)c2[nH]cc([C@@H]3C=C(CO)[C@@H](O)[C@H]3O)c2n1              pIC50  < 4.00
2  Nc1nc(=O)c([C@@H]2C=C(CO)[C@@H](O)[C@H]2O)c[nH]1              pIC50  < 4.00
3  O=c1[nH]cc([C@@H]2C=C(CO)[C@@H](O)[C@H]2O)c(=O)[nH]1              pIC50  < 4.00

Exam item: Item: Nc1ncnc2c([C@@H]3C=C(CO)[C@@H](O)[C@H]3O)c[nH]c12 Test system: CCRF-CEM Read-out: pIC50 Value: ?
Marked response: 4.97
